The reported numbers originate from the supplement of paper PMC8728848.

Target: Fuc(a1-2)[Gal(a1-3)]Gal
Assay: glycan array binding signal (z-score within array); higher = stronger binding
Conditions: glycan notation: IUPAC condensed, linker removed
Only a selection was taken, and the strongest signals are over-represented in it overall.
In this scheme, each record receives a class according to its glycan array binding signal (z-score); the ranges are group A (below -0.5), group B (-0.5 to below -0.1), group C (-0.1 or more)

query: Exam item: assign SP8524D-bot-399-27-399 (Bacteroides ovatus) (protein) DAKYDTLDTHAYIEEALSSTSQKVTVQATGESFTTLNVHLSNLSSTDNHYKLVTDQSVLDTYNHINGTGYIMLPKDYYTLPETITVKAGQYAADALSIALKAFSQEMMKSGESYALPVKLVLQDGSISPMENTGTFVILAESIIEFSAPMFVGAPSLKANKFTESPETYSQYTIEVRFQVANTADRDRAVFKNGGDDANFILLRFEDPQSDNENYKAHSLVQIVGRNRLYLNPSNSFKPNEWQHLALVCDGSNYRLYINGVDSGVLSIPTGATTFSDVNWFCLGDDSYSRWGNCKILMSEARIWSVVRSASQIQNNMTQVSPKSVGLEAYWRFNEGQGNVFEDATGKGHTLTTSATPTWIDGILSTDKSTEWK to the correct category.
result: group C

query: Exam item: assign SIGNR8 (Mus musculus) (protein) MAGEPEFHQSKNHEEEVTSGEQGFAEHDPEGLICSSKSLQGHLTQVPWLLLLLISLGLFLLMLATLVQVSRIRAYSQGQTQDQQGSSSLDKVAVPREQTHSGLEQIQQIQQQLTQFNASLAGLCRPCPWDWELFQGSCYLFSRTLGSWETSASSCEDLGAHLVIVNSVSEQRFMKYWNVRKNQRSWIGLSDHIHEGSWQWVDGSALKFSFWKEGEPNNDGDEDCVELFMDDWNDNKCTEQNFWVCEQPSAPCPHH to the correct category.
result: group C

query: Exam item: assign Mincle (Bos taurus) (protein) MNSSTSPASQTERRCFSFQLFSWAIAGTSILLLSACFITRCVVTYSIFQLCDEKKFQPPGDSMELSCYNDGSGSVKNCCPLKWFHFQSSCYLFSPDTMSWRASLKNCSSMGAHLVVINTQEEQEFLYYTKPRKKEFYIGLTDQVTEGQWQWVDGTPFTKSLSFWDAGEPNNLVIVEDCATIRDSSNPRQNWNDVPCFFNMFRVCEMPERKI to the correct category.
result: group A

query: Exam item: assign RNase 1 (Homo sapiens) (protein) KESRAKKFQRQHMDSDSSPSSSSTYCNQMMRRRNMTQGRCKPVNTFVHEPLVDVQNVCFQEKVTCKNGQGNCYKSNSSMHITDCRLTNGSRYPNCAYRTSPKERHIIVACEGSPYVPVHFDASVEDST to the correct category.
result: group B

query: Exam item: assign MGL6A (Homo sapiens) (protein) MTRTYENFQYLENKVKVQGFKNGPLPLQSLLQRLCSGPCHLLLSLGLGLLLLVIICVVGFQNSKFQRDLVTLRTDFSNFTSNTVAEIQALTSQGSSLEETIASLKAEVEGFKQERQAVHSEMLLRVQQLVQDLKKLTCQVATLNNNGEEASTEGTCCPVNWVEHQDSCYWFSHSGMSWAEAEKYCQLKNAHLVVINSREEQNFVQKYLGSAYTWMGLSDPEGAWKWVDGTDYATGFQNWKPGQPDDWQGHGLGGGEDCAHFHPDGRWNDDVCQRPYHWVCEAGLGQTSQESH to the correct category.
result: group B

query: Exam item: assign SLR2P2A3 (Tachypleus tridentatus), TAL2_TACTR (protein) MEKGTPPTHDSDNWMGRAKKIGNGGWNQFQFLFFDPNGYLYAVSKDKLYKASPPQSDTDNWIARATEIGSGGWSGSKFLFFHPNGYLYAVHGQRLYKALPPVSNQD to the correct category.
result: group C

query: Exam item: assign ArathEULS3 (Arabidopsis thaliana), Q945P1 (protein) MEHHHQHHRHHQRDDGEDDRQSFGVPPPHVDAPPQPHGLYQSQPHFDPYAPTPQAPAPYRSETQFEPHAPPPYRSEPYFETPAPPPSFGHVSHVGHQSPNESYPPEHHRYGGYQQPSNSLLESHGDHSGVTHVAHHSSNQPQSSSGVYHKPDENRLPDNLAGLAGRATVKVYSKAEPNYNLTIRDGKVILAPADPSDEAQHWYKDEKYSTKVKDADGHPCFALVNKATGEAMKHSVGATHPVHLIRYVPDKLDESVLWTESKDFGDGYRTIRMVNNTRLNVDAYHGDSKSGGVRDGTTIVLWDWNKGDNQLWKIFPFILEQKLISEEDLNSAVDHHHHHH to the correct category.
result: group B

query: Exam item: assign MGL (Homo sapiens), Q8IUN9 (protein) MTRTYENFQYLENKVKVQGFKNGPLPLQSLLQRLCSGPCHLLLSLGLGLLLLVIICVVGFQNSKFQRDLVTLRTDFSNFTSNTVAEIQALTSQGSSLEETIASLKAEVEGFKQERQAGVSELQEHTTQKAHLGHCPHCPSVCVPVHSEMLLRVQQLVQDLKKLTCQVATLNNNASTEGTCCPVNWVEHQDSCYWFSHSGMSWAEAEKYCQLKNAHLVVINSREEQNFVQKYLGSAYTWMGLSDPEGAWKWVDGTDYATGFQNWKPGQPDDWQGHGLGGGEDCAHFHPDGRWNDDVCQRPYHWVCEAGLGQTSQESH to the correct category.
result: group B

query: Exam item: assign S100A12 (Homo sapiens), P80511 (protein) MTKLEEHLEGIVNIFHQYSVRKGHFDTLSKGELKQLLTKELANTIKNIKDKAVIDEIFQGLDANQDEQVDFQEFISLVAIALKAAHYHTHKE to the correct category.
result: group A
